- System: SR leukemia
- Experimental protocol: NCI-60 one-dose screen, 48 h (100 = growth as untreated, 0 = no growth, -100 = all killed)
- Condition: 10 µM unless noted
The panel holds about 83,000 compounds, 20% with a hit somewhere; the sample as a whole holds those more often. Activity calls are given as the source filed them. Rule for the calls: active = growth percent below 10; inactive = the rest.
Recorded growth for the following compounds

Exam item: Please look at this compound and report its growth: CC(C)CCSc1nc(N)nc2nc[nH]c12
Marked response: 89.8% (inactive)

Exam item: Please look at this compound and report its growth: Nc1cccc2c1C(=O)c1cccc(NC(=O)c3ccccc3)c1C2=O
Marked response: 15.1% (inactive)

Exam item: Please look at this compound and report its growth: O=C(Nc1ccc(Nc2ccncc2)cc1)c1ccc([N+](=O)[O-])cc1
Marked response: -45.3% (active)

Exam item: Please look at this compound and report its growth: O=S(=O)(/N=c1/n(-c2ccccc2)nc2n1CCN2C1=NCCN1)c1ccc(-c2ccccc2)cc1
Marked response: 67.4% (inactive)

Exam item: Please look at this compound and report its growth: O=C(Nc1cccnc1)c1ccc2ccc3ccc(C(=O)Nc4cccnc4)nc3c2n1
Marked response: 42.6% (inactive)

Exam item: Please look at this compound and report its growth: Nn1c(Nc2ccc(S(=O)(=O)Nc3ncccn3)cc2)nnc(/C=C/c2c(O)ccc3ccccc23)c1=O
Marked response: 89.7% (inactive)

Exam item: Please look at this compound and report its growth: O=C(Nc1cccc2ccccc12)c1cc2ccccc2cc1O
Marked response: 16% (inactive)

Exam item: Please look at this compound and report its growth: CCCCCn1sc(=O)n(Cc2ccc(CNC(=O)OCc3ccc4cccc(O)c4n3)cc2)c1=O
Marked response: 4.06% (active)

Exam item: Please look at this compound and report its growth: CSc1nc(=S)c2nc(SC)n(-c3ccccc3)c2[nH]1
Marked response: 104% (inactive)

Exam item: Please look at this compound and report its growth: CCCCCN(CCCCC)CCCCCCCCN1CCCc2ccccc21
Marked response: 21.5% (inactive)

* * *

- Test system: UACC-62 melanoma
- Experimental protocol: NCI-60 one-dose screen, 48 h
- Condition: 10 µM unless noted
The panel holds about 83,000 compounds, 20% with a hit somewhere; the sample as a whole holds those more often. The source made the active and inactive calls. How the source made its calls: active means growth percent below 10; inactive means the rest.
Assign a class; possible classes are yes (1) = active, no (0) = inactive

For orientation, consider the following solved cases.
Cc1cccc(C[C@H](NC(=O)Nc2ccc(C)cc2F)C(=O)N[C@@H]2C(=O)N3C[C@H](O)C[C@H]3C(=O)N3CCN(C)C[C@H]3C(=O)N[C@@H](C)C(=O)N3C[C@H](C)C[C@H]3C(=O)O[C@H]2C)c1 | no (0)
O=C1CN(Cc2ccc(C(=O)NO)cc2)C(=O)[C@@H](Cc2ccccc2)N1 | no (0)
CC(C)=CC/C=C(/C)[C@H]1CC[C@]2(C)[C@@H]1CC[C@@H]1[C@@]3(C)CCC(=O)NC(C)(C)[C@@H]3CC[C@]12C | yes (1)
CC1(C)C(=O)/C(=C\c2ccco2)C[C@]2(C)[C@H]3CC=C4[C@@H]5C[C@](C)(C(=O)O)CC[C@]5(C)CC[C@@]4(C)[C@]3(C)CC[C@@H]12 | yes (1)

Exam item: // outcome(item) with item = CCOc1cc(/C=N\NC(=O)N/N=C/c2ccc(O)c(OCC)c2)ccc1O
Marked response: no (0)

Exam item: // outcome(item) with item = CN(C)Cc1ccc[nH]1
Marked response: no (0)

Exam item: // outcome(item) with item = Nc1ccc(Cl)c([N+](=O)[O-])c1
Marked response: no (0)

Exam item: // outcome(item) with item = COc1cc(C)cc2oc3oc(=N)c(C(=O)c4ccccc4)cc3c(=O)c12
Marked response: no (0)

Exam item: // outcome(item) with item = CC(C)CCSC1=CC(=O)c2ccccc2C1=O
Marked response: no (0)

Exam item: // outcome(item) with item = O=C(N/N=C\c1cc(Cl)ccc1O)N/N=C/c1cc(Cl)ccc1O
Marked response: no (0)
